# Test system: bEnd3 cells
# ASSAY_DETAILS: Uptake test: cellular interaction (acid wash) and internalization (lysate)
# Format: cell-based
# EXPERIMENTAL_CONDITIONS: GaCl3; 0.25 hours
Internalization listing for selected substances.
READOUT_NAME: Internalization

• KSKAINVLRGFRKEIGRMLNILN [PepH4] = 0.26 ± 0.0%
• AGILKRW (Dengue virus 2; /note=“#PepH3 (PEP+)”) = 0.03 ± 0.0%
• VQQLTKRFSL (Dengue virus 2; /note=“#PepH1”) = 0.00 ± 0.0%
• KLFMALVAFLRFLT [PepH2] = 0.84 ± 0.1%

* * *

# ASSAY_DETAILS: Biodistribution of technetium-labelled peptides
# Type: in vivo, CD1 mice
# EXPERIMENTAL_CONDITIONS: CD1, muscle, iv, 80 ug/mouse, total radioactivity; 80 μg/mouse; 1 hour; read-out: injected activity in Muscle
READOUT_NAME: tissue uptake at 1 h

• CSCC[C@H](NC(=O)[C@H](Cc1ccccc1)NC(=O)[C@H](CC(C)C)NC(=O)[C@H](CCCCN)NC(=O)CCCN(CCN)CCn1nc(C)c(CC(=O)O)c1C)C(=O)N[C@@H](C)C(=O)N[C@@H](CC(C)C)C(=O)N[C@H](C(=O)N[C@@H](C)C(=O)N[C@@H](Cc1ccccc1)C(=O)N[C@@H](CC(C)C)C(=O)N[C@@H](CCCNC(=N)N)C(=O)N[C@@H](Cc1ccccc1)C(=O)N[C@@H](CC(C)C)C(=O)N[C@H](C(=O)O)[C@@H](C)O)C(C)C [^99mTc(CO)3-Pz^1-pepH2, metal not drawn] = 0.43 %ID/g

* * *

# ASSAY_DETAILS: Biodistribution of technetium-labelled peptides
# Type: in vivo, CD1 mice
# EXPERIMENTAL_CONDITIONS: CD1, stomach, iv, 140 ug/mouse, total radioactivity; 140 μg/mouse; 1 hour; read-out: injected activity in Stomach
Residues, ends and D or L forms follow the SMILES beside them. *: point of attachment. X1 = Cc1nn(CCN(CCN)CCCC(=O)*)c(C)c1CC(=O)O
READOUT_NAME: tissue uptake at 1 h

• CC[C@H](C)[C@H](NC(=O)CNC(=O)[C@H](C)NC(=O)CCCN(CCN)CCn1nc(C)c(CC(=O)O)c1C)C(=O)N[C@@H](CC(C)C)C(=O)N[C@@H](CCCCN)C(=O)N[C@@H](CCCNC(=N)N)C(=O)N[C@@H](Cc1c[nH]c2ccccc12)C(=O)O [^99mTc(CO)3-Pz^1-pepH3, metal not drawn] (X1-AGILKRW-OH; C-terminus assumed) = 5.2 %ID/g

* * *

# Tested on: bEnd3 cells
# ASSAY_DETAILS: Uptake test: cellular interaction (acid wash) and internalization (lysate)
# Format: cell-based
# EXPERIMENTAL_CONDITIONS: 99mTc; 0.25 hours
# Method: In addition to testing models of BBB, an uptake test was performed to determine the internalizing ability of the candidate peptides. BEnd3 cells were cultured in 24 well plates. At each time point, the medium containing the peptide, which had not interacted with the cells, was collected. […] Finally, the cells were lysed to release internalized peptides and to quantify the activity inside the cells. […]
READOUT_NAME: Cellular interaction

- AGILKRW (Dengue virus 2; /note=“#PepH3 (PEP+)”): 1.50 ± 0.1%
- VQQLTKRFSL (Dengue virus 2; /note=“#PepH1”): 0.63 ± 0.1%
- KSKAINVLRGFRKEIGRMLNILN [PepH4]: 2.06 ± 0.3%
- KLFMALVAFLRFLT [PepH2]: 1.60 ± 0.3%

Data origin: patent US10654917B2
